# Assay type: in vivo, human
# protocol-conditions: human, plasma, intravenous, 15 mg/m2
assay-readout: AUC(0-t)

Query: Given the compound CO[C@H]1C[C@@H]2CC[C@@H](C)[C@@](O)(O2)C(=O)C(=O)N2CCCC[C@H]2C(=O)O[C@H]([C@H](C)C[C@@H]2CC[C@@H](OC(=O)C(C)(CO)CO)[C@H](OC)C2)CC(=O)[C@H](C)/C=C(\C)[C@@H](O)[C@@H](OC)C(=O)[C@H](C)C[C@H](C)/C=C/C=C/C=C/1C [Temsirolimus] , what is its reported AUC(0-t)?
Response: 2780 ng·h/mL

----------
# Type: in vivo, human
# protocol-conditions: human, plasma, intravenous, 8 mg/m2
assay-readout: AUC(0-t) (ng·h/mL)
Write it as a number; the unit ng·h/mL goes unstated.

Query: Given the molecule CO[C@H]1C[C@@H]2CC[C@@H](C)[C@@](O)(O2)C(=O)C(=O)N2CCCC[C@H]2C(=O)O[C@H]([C@H](C)C[C@@H]2CC[C@@H](OC(=O)C(C)(CO)CO)[C@H](OC)C2)CC(=O)[C@H](C)/C=C(\C)[C@@H](O)[C@@H](OC)C(=O)[C@H](C)C[C@H](C)/C=C/C=C/C=C/1C , what is its reported AUC(0-t)?
Response: 2020

----------
# Format: in vivo, human
# protocol-conditions: human, plasma, intravenous, 10 mg/m2
assay-readout: Vd (L)
Write it as a number; the unit L goes unstated.

Query: Given the molecule CO[C@H]1C[C@@H]2CC[C@@H](C)[C@@](O)(O2)C(=O)C(=O)N2CCCC[C@H]2C(=O)O[C@H]([C@H](C)C[C@@H]2CC[C@@H](OC(=O)C(C)(CO)CO)[C@H](OC)C2)CC(=O)[C@H](C)/C=C(\C)[C@@H](O)[C@@H](OC)C(=O)[C@H](C)C[C@H](C)/C=C/C=C/C=C/1C [Temsirolimus] , what is its reported Vd?
Response: 50.4

----------
# Assay type: in vivo, human
# protocol-conditions: human, plasma, intravenous, 15 mg/m2
assay-readout: Cmax
Please state the number and follow it with the unit.

Query: Given the compound CO[C@H]1C[C@@H]2CC[C@@H](C)[C@@](O)(O2)C(=O)C(=O)N2CCCC[C@H]2C(=O)O[C@H]([C@H](C)C[C@@H]2CC[C@@H](OC(=O)C(C)(CO)CO)[C@H](OC)C2)CC(=O)[C@H](C)/C=C(\C)[C@@H](O)[C@@H](OC)C(=O)[C@H](C)C[C@H](C)/C=C/C=C/C=C/1C , what is its reported Cmax?
Response: 660 ng/mL

----------
# Format: in vivo, human
# protocol-conditions: human, plasma, intravenous, 10 mg/m2
assay-readout: Tmax (min)
Write it as a number; the unit min goes unstated.

Query: Given the compound CO[C@H]1C[C@@H]2CC[C@@H](C)[C@@](O)(O2)C(=O)C(=O)N2CCCC[C@H]2C(=O)O[C@H]([C@H](C)C[C@@H]2CC[C@@H](OC(=O)C(C)(CO)CO)[C@H](OC)C2)CC(=O)[C@H](C)/C=C(\C)[C@@H](O)[C@@H](OC)C(=O)[C@H](C)C[C@H](C)/C=C/C=C/C=C/1C , what is its reported Tmax?
Response: 42

----------
# Assay type: in vivo, human
# protocol-conditions: human, plasma, intravenous, 10 mg/m2
assay-readout: half-life

Query: Given the molecule CO[C@H]1C[C@@H]2CC[C@@H](C)[C@@](O)(O2)C(=O)C(=O)N2CCCC[C@H]2C(=O)O[C@H]([C@H](C)C[C@@H]2CC[C@@H](OC(=O)C(C)(CO)CO)[C@H](OC)C2)CC(=O)[C@H](C)/C=C(\C)[C@@H](O)[C@@H](OC)C(=O)[C@H](C)C[C@H](C)/C=C/C=C/C=C/1C [Temsirolimus] , what is its reported half-life?
Response: 10.5 h

----------
# Format: in vivo, human
# protocol-conditions: human, plasma, intravenous, 15 mg/m2
assay-readout: half-life (h)
Write it as a number; the unit h goes unstated.

Query: Given the compound CO[C@H]1C[C@@H]2CC[C@@H](C)[C@@](O)(O2)C(=O)C(=O)N2CCCC[C@H]2C(=O)O[C@H]([C@H](C)C[C@@H]2CC[C@@H](OC(=O)C(C)(CO)CO)[C@H](OC)C2)CC(=O)[C@H](C)/C=C(\C)[C@@H](O)[C@@H](OC)C(=O)[C@H](C)C[C@H](C)/C=C/C=C/C=C/1C [Temsirolimus] , what is its reported half-life?
Response: 10.3

----------
# Type: in vivo, human
# protocol-conditions: human, plasma, intravenous, 15 mg/m2
assay-readout: Vd (L)
Write it as a number; the unit L goes unstated.

Query: Given the compound CO[C@H]1C[C@@H]2CC[C@@H](C)[C@@](O)(O2)C(=O)C(=O)N2CCCC[C@H]2C(=O)O[C@H]([C@H](C)C[C@@H]2CC[C@@H](OC(=O)C(C)(CO)CO)[C@H](OC)C2)CC(=O)[C@H](C)/C=C(\C)[C@@H](O)[C@@H](OC)C(=O)[C@H](C)C[C@H](C)/C=C/C=C/C=C/1C , what is its reported Vd?
Response: 74.9

----------
# Format: in vivo, human
# protocol-conditions: human, plasma, intravenous, 8 mg/m2
assay-readout: AUC(0-inf) (ng·h/mL)
Write it as a number; the unit ng·h/mL goes unstated.

Query: Given the molecule CO[C@H]1C[C@@H]2CC[C@@H](C)[C@@](O)(O2)C(=O)C(=O)N2CCCC[C@H]2C(=O)O[C@H]([C@H](C)C[C@@H]2CC[C@@H](OC(=O)C(C)(CO)CO)[C@H](OC)C2)CC(=O)[C@H](C)/C=C(\C)[C@@H](O)[C@@H](OC)C(=O)[C@H](C)C[C@H](C)/C=C/C=C/C=C/1C , what is its reported AUC(0-inf)?
Response: 2950

----------
# Type: in vivo, human
# protocol-conditions: human, plasma, intravenous, 8 mg/m2
assay-readout: half-life (min)
Write it as a number; the unit min goes unstated.

Query: Given the compound CO[C@H]1C[C@@H]2CC[C@@H](C)[C@@](O)(O2)C(=O)C(=O)N2CCCC[C@H]2C(=O)O[C@H]([C@H](C)C[C@@H]2CC[C@@H](OC(=O)C(C)(CO)CO)[C@H](OC)C2)CC(=O)[C@H](C)/C=C(\C)[C@@H](O)[C@@H](OC)C(=O)[C@H](C)C[C@H](C)/C=C/C=C/C=C/1C , what is its reported half-life?
Response: 618

----------
# Assay type: in vivo, human
# protocol-conditions: human, plasma, intravenous, 10 mg/m2
assay-readout: AUC(0-inf) (ng·h/mL)
Write it as a number; the unit ng·h/mL goes unstated.

Query: Given the molecule CO[C@H]1C[C@@H]2CC[C@@H](C)[C@@](O)(O2)C(=O)C(=O)N2CCCC[C@H]2C(=O)O[C@H]([C@H](C)C[C@@H]2CC[C@@H](OC(=O)C(C)(CO)CO)[C@H](OC)C2)CC(=O)[C@H](C)/C=C(\C)[C@@H](O)[C@@H](OC)C(=O)[C@H](C)C[C@H](C)/C=C/C=C/C=C/1C , what is its reported AUC(0-inf)?
Response: 3650

----------
# Format: in vivo, human
# protocol-conditions: human, plasma, intravenous, 8 mg/m2
assay-readout: Cmax

Query: Given the compound CO[C@H]1C[C@@H]2CC[C@@H](C)[C@@](O)(O2)C(=O)C(=O)N2CCCC[C@H]2C(=O)O[C@H]([C@H](C)C[C@@H]2CC[C@@H](OC(=O)C(C)(CO)CO)[C@H](OC)C2)CC(=O)[C@H](C)/C=C(\C)[C@@H](O)[C@@H](OC)C(=O)[C@H](C)C[C@H](C)/C=C/C=C/C=C/1C , what is its reported Cmax?
Response: 509 ng/mL

----------
# Assay type: in vivo, human
# protocol-conditions: human, plasma, intravenous, 10 mg/m2
assay-readout: Cmax (ng/mL)
Write it as a number; the unit ng/mL goes unstated.

Query: Given the compound CO[C@H]1C[C@@H]2CC[C@@H](C)[C@@](O)(O2)C(=O)C(=O)N2CCCC[C@H]2C(=O)O[C@H]([C@H](C)C[C@@H]2CC[C@@H](OC(=O)C(C)(CO)CO)[C@H](OC)C2)CC(=O)[C@H](C)/C=C(\C)[C@@H](O)[C@@H](OC)C(=O)[C@H](C)C[C@H](C)/C=C/C=C/C=C/1C , what is its reported Cmax?
Response: 606

----------
# Format: in vivo, human
# protocol-conditions: human, whole blood, intravenous, 8 mg/m2
assay-readout: clearance (mL/min)
Write it as a number; the unit mL/min goes unstated.

Query: Given the compound CO[C@H]1C[C@@H]2CC[C@@H](C)[C@@](O)(O2)C(=O)C(=O)N2CCCC[C@H]2C(=O)O[C@H]([C@H](C)C[C@@H]2CC[C@@H](OC(=O)C(C)(CO)CO)[C@H](OC)C2)CC(=O)[C@H](C)/C=C(\C)[C@@H](O)[C@@H](OC)C(=O)[C@H](C)C[C@H](C)/C=C/C=C/C=C/1C [Temsirolimus] , what is its reported clearance?
Response: 38.3
